# System: KM12 colon
# experimental.protocol: NCI-60 one-dose screen, 48 h
# measurement.context: 10 µM unless noted
# Procedure: Growth inhibition of the KM12 human tumor cell line is measured as a screen for anti-cancer activity. Cells are grown in 96 well plates and exposed to the test compound for 48 hours. Compounds are tested at a single concentration, which is 10^-5 M for most compounds. The reported endpoint is percent growth (GI% or GIPRCNT), where numbers from 0 - 100% represent growth inhibition, and numbers from -100% - 0 represent cell death. For example, a value of 40 represents 60% growth inhibition. […]
About 83,000 compounds went through this panel and 20% of them were active in at least one assay; those are over-represented in the sample as a whole. Calls of active or inactive are those of the source. Rule for the calls: active = growth percent below 10; inactive = the rest.
Respond using exactly one of the listed classes: active, inactive

Sample answers from the record:
{"compound": "Cc1cc(=O)oc2cc(OCCOc3ccc(/C=C/C(=O)Nc4ccccc4N)cc3)ccc12", "assay.target": "KM12 colon", "group.label": "inactive"}
{"compound": "C=C1CCC2C3(C)COC(c4cccc(F)c4)OC3CCC2(C)C1C/C=C1/C(=O)OCC1O (stereo not given)", "assay.target": "KM12 colon", "group.label": "active"}
{"compound": "O=C(N/N=C/c1ccc(-c2ccc(O)cc2)o1)c1[nH]c2ccc(Br)cc2c1-c1ccccc1", "assay.target": "KM12 colon", "group.label": "active"}
{"compound": "CC1(C)CC[C@]2(C(=O)O)CC[C@]3(C)C(=CCC4[C@@]5(C)C[C@@H](O)[C@@H]6OC(c7cccc(Br)c7)OC[C@@]6(C)C5CC[C@]43C)C2C1 (stereo not given in full)", "assay.target": "KM12 colon", "group.label": "inactive"}

Task: Recorded test call requested for `COc1ccc(/C=C/c2nc3ccccc3c(=O)n2CC(=O)Nc2ccc(Cl)cc2)cc1`
Output: inactive

----------
# Tested on: UACC-62 melanoma
# experimental.protocol: NCI-60 one-dose screen, 48 h (100 = growth as untreated, 0 = no growth, -100 = all killed)
# measurement.context: 10 µM unless noted
# Experimental: Growth inhibition of the UACC-62 human tumor cell line is measured as a screen for anti-cancer activity. Cells are grown in 96 well plates and exposed to the test compound for 48 hours. Compounds are tested at a single concentration, which is 10^-5 M for most compounds. The reported endpoint is percent growth (GI% or GIPRCNT), where numbers from 0 - 100% represent growth inhibition, and numbers from -100% - 0 represent cell death. For example, a value of 40 represents 60% growth inhibition. […]
The panel holds about 83,000 compounds, 20% with a hit somewhere; the sample as a whole holds those more often.
Measured growth accompanies every entry in the list below.
# value in %; strip the unit string

// below: answered compounds
{"compound": "COc1ccc(C(=O)/C=C/c2ccc(OCc3ccc(F)cc3)c(OC)c2)cc1OC", "unit": "%", "growth": 18.8}
{"compound": "COc1ccc(C(=O)/C=C/c2cc3c(cc2Br)OCO3)cc1S(N)(=O)=O", "unit": "%", "growth": 39.2}
{"compound": "CC1(C)CC[C@]2(C(=O)O)CC[C@]3(C)C(=CCC4[C@@]5(C)C[C@@H](O)[C@@H]6OC(c7ccco7)OC[C@@]6(C)C5CC[C@]43C)C2C1 (some centres undefined)", "unit": "%", "growth": -7.05}
{"compound": "COc1ccc(C(=O)/C=C/c2ccc(OC)c(OCc3ccccc3)c2)cc1OC", "unit": "%", "growth": 14.8}

Task: Give its growth value. Item: `O=C1c2c(c3c4cc(F)ccc4oc3c3[nH]c4ccc(Br)cc4c23)C(=O)N1O`
Output: 18.6

Task: Using the record for CC1=C(C(=O)c2ccccc2)C(c2cccc3ccccc23)n2c(nc3ccccc32)N1 (centres undefined) , report its growth.
Output: 37.5

Task: What does the data say about its growth? Entry: `O=C(/C=C/c1ccc(-c2ccccc2)cc1)c1nc2ccccc2n1Cc1ccc(F)cc1`
Output: 38.2

----------
# Test system: KM12 colon
# experimental.protocol: NCI-60 one-dose screen, 48 h
# measurement.context: 10 µM unless noted
This is part of a sample that, as a whole, favours compounds with a hit. Of some 83,000 tested, about 20% had one in any assay. Active and inactive are the calls of the source. Rule for the calls: active = growth percent below 10; inactive = the rest.
Choose the fitting class; nothing outside 1 = active, -1 = inactive is accepted.

Task: Hello, I am checking results. What call was entered for `CSc1ccccc1NC(=O)c1ccc2nn(/C(C#N)=C/c3ccccn3)nc2c1` ?
Output: 1

----------
# System: HS 578T breast
# experimental.protocol: NCI-60 one-dose screen, 48 h
# measurement.context: 10 µM unless noted
# Procedure: Growth inhibition of the HS 578T human tumor cell line is measured as a screen for anti-cancer activity. Cells are grown in 96 well plates and exposed to the test compound for 48 hours. Compounds are tested at a single concentration, which is 10^-5 M for most compounds. The reported endpoint is percent growth (GI% or GIPRCNT), where numbers from 0 - 100% represent growth inhibition, and numbers from -100% - 0 represent cell death. For example, a value of 40 represents 60% growth inhibition. […]
About 83,000 compounds went through this panel and 20% of them were active in at least one assay; those are over-represented in the sample as a whole. Active and inactive are the calls of the source. How the source made its calls: active means growth percent below 10; inactive means the rest.
Write down the outcome that applies. Available outcomes: active, inactive

Examples from the recorded data:
{"compound": "C=C1CCC2C3(C)COC(c4cccs4)OC3CCC2(C)C1CC(Sc1ccccc1)C1=CCOC1=O (configuration not stated)", "group.label": "inactive"}
{"compound": "COc1cc(NC(=O)c2cccc(C3CCc4c(cc(OC)c(OC)c4OC)O3)c2)cc(OC)c1OC (configuration not stated)", "group.label": "active"}
{"compound": "Cc1cccc(-c2nc(Nc3cccc(S(N)(=O)=O)c3)c3ccccc3n2)c1", "group.label": "inactive"}

Task: For this compound, state the assay outcome: `COc1ccc2[nH]cc(-c3cc(N)n4nc(-c5cn(C)c6ccccc56)cc4n3)c2c1`
Output: active

Task: Fill in: this test's call for Cc1ccc([C@H]2C(C(=O)c3ccc(Cl)cc3)C3(N[C@@H]2c2ccccc2)C(=O)Nc2ccc(Cl)cc23)cc1 (some centres not stated) is ___
Output: inactive

Task: In this assay, the call recorded for `Cn1cc(-c2cc(N)n3nc(-c4cn(C)c5ccccc45)cc3n2)c2cc(Br)ccc21` was what?
Output: active

Task: Recorded call for `COc1ccc2[nH]c(=O)c(CSc3nccc(-c4ccc(OC)c(OC)c4)n3)cc2c1` ?
Output: active

Task: Outcome? C=C1CCC2C3(C)COC(c4ccccc4F)OC3CCC2(C)C1CC(O)C1=CCOC1=O (configuration not stated)
Output: inactive

Task: Recorded test call requested for COc1cc(C2CC(c3cc(OC)c(OC)c(OC)c3)=Nc3c(N)nc(N)nc3N2)ccc1Oc1nc(NCCO)nc(N2CCOCC2)n1 (configuration not stated)
Output: inactive

Task: Could you please tell me the result logged for COc1ccc(C2=NN(c3ccccc3)C(c3ccc(OCc4ccccc4)c(OC)c3)C2)cc1OC (configuration not stated) in this assay?
Output: inactive

Task: # lookup: test call for `Cc1ccc(/C=C/c2n(Cc3ccc4ccccc4c3)c3ccccc3[n+]2Cc2ccc3ccccc3c2)cc1`
Output: active

Task: State the result this test recorded for `Cn1cc(-c2cc(N)n3nc(-c4c[nH]c5ccccc45)cc3n2)c2cccnc21` .
Output: inactive

Task: Given `COc1ccc(-c2nc(SCC(C)C)nc(NCCc3c[nH]c4ccccc34)c2C#N)cc1` , state the outcome it received in this test.
Output: inactive

Task: Name the outcome recorded for COc1cc2c(c(OC)c1OC)C(=O)CC(c1cccc(NC(=O)[C@@H](N)CC(C)C)c1)O2 (some centres not stated) in the assay.
Output: inactive

Task: Answer briefly: the call reported for `O=C1/C(=C/C2=Cc3ccccc3OC2)SC(=S)N1c1ccccc1F` in this assay.
Output: inactive

Task: Hi team, can someone confirm the assay call for `Cc1ccc(NC(=O)CN2CCN(c3ncnc4c3cnn4-c3ccccc3)CC2)cc1` ?
Output: inactive

Task: Each compound tested received a call. Report the one for `S=C(Nc1ccc(OCc2nc3ccccc3[nH]2)cc1)NC1CCCCC1` .
Output: inactive

Task: Look up the recorded call for `COc1cccc(/C=C/c2nc3ccccc3c(=O)n2CC(=O)Nc2ccc(Cl)cc2)c1` in this test.
Output: inactive

Task: Tell me the assay call for `COc1ccc(NC(=O)Cn2c(/C=C/c3cccc([N+](=O)[O-])c3)nc3ccccc3c2=O)cc1` please.
Output: inactive

Task: Name the outcome recorded for `Cc1ccc(S(=O)(=O)c2nc(S(=O)(=O)c3ccc(C)cc3)c(N3CCC(O)CC3)s2)cc1` in the assay.
Output: inactive

Task: // return assay outcome for `COc1ccc(-c2nc3cc(C)ccc3n2CC(=O)N=Nc2c(O)[nH]c3ccc(Br)cc23)cc1`
Output: inactive

Task: Call for entry `C[C@H]1CN(C(=O)c2ccc3c(NNC(=O)c4ccncn4)nc4cc(F)c(F)cc4n23)CCN1` :
Output: inactive
